Provenance of the data: patent US10590158B2

Tested on: MES DX cells
Assay: cells
Format: cell-based
Details: MDR1, 72 h, read-out: IC50 MES DX
MEASURED ENDPOINT: pIC50
Numbers only, as −log10 of the molar value.

Any idea what pIC50 was measured for COC(=O)NC1=C2/C(=C\CSSC)[C@](O)(C#C/C=C\C#C[C@]2(O)OC2OC(C)C(SC)(C(=O)c3nccc4c3[nH]c3ccc(O)cc34)C(O)C2OC2CC(OC)C(NC(C)C)CO2)CC1=O (stereo partly shown) ?
7.46

----------
Tested on: MES SA cells
Assay: cells
Type: cell-based
Conditions: Homo sapiens, 72 h, read-out: IC50 MES SA
MEASURED ENDPOINT: pIC50
Answers are plain numbers, as −log10 of the molar value.

Any idea what pIC50 was measured for COC(=O)NC1=C2/C(=C\CSSSC)[C@](O)(C#C/C=C\C#C[C@]2(O)OC2OC(C)C(SC)(C(=O)c3nccc4c3[nH]c3ccc(O)cc34)C(O)C2OC2CC(OC)C(NC(C)C)CO2)CC1=O (stereo partly shown) ?
10.90
